// data source = ChEMBL document CHEMBL6083254

Known Activity of a selection of compounds
# Tested on: Plasmodium yoelii
# assayInfo: Antiplasmodial activity against asexual erythrocytic stage of Plasmodium yoelii infected in female CFI mouse model assessed as reduction in parasitemia at 25 mg/kg, po administered once daily for 4 days and measured on day 5 by Giemsa staining based microscopic analysis relative to control
# Format: functional
# Design: scale not given: the % may be the effect or the level left
# conditionSet: time 5 day
Response body: numeric value in %, unit text excluded.

Guide cases for Activity, answers given:
- cpdSmiles: "CCCCCc1cc(/C=C2\\N=C(c3ccc[nH]3)C=C2OCc2ccc(OC(F)(F)F)cc2)[nH]c1C.Cl"
  testSystem: "Plasmodium yoelii"
  Activity [%]: 100
- cpdSmiles: "COC1=CC(c2ccc[nH]2)=N/C1=C\\NCC(C)C"
  testSystem: "Plasmodium yoelii"
  Activity [%]: 18.2
- cpdSmiles: "Cl.FC(F)(F)Oc1ccc(COC2=CC(c3ccc[nH]3)=N/C2=C\\NC2CCCCCC2)cc1"
  testSystem: "Plasmodium yoelii"
  Activity [%]: 72.3

Now turn to the next compound.
Query string: # get_value(readout='Activity', item= CCOC1=CC(c2ccc[nH]2)=N/C1=C\NC1CCCCCC1.Cl )
Result string: 8.5

----------
# assayInfo: in vitro
# conditionSet: human
# Description: Selectivity index, ratio of IC50 for cytotoxicity against human HepG2 cells assessed as cell viability to IC50 for antiplasmodial activity against asexual erythrocytic stage of Plasmodium falciparum D6 assessed as inhibition of parasitic growth incubated
reportedMetric: selectivity ratio
Lab note: write the figure by itself, no unit.

Guide cases for selectivity ratio, answers given:
- cpdSmiles: "CCCCCc1cc(/C=C2\\N=C(c3ccc[nH]3)C=C2OCc2ccccc2)[nH]c1C.Cl"
  selectivity ratio: 896
- cpdSmiles: "CCCCCc1cc(/C=C2\\N=C(c3ccc[nH]3)C=C2OCc2ccc(OC(F)(F)F)cc2)[nH]c1C.Cl"
  selectivity ratio: 900
- cpdSmiles: "CCCCCc1cc(/C=C2\\N=C(c3ccc[nH]3)C=C2OC(C)C)[nH]c1C.Cl"
  selectivity ratio: 3190
- cpdSmiles: "CCCCCCCCCCCC1=N/C(=C\\c2[nH]c(-c3ccc[nH]3)cc2OC)C=C1"
  selectivity ratio: 237
- cpdSmiles: "C1=C(OCc2ccccc2)/C(=C/NC23CC4CC(CC(C4)C2)C3)N=C1c1ccc[nH]1.Cl"
  selectivity ratio: 171

Query string: # get_value(readout='selectivity ratio', item= C1=C(OCc2ccccc2)/C(=C/NC2CCCCCC2)N=C1c1ccc[nH]1.Cl )
Result string: 194

Query string: # get_value(readout='selectivity ratio', item= CCCOC1=CC(c2ccc[nH]2)=N/C1=C\NC1CCCCCC1.Cl )
Result string: 7960

Query string: # get_value(readout='selectivity ratio', item= CCOC1=CC(c2ccc[nH]2)=N/C1=C\NCC(C)C.Cl )
Result string: 154

Query string: # get_value(readout='selectivity ratio', item= CCCCCCCCCCCc1ccc(/C=C2\N=C(c3ccc[nH]3)C=C2OCc2ccccc2)[nH]1.Cl )
Result string: 2020

Query string: # get_value(readout='selectivity ratio', item= Cl.Clc1ccc(OC2=CC(c3ccc[nH]3)=N/C2=C\NC23CC4CC(CC(C4)C2)C3)cc1 )
Result string: 275

Query string: # get_value(readout='selectivity ratio', item= CCCCCc1cc(/C=C2\N=C(c3ccc[nH]3)C=C2OCCC)[nH]c1C.Cl )
Result string: 11600

----------
# Test system: Plasmodium yoelii
# assayInfo: Antiplasmodial activity against asexual erythrocytic stage of Plasmodium yoelii infected in female CFI mouse model assessed as reduction in parasitemia at 25 mg/kg, po administered once daily for 4 days and measured on day 5 by Giemsa staining based microscopic analysis relative to control
# Type: functional
# Parameters: scale not given: the % may be the effect or the level left
# conditionSet: time 5 day
Hi! Just check whether Activity is below 40%. Below gives yes, equal or above gives no.

Record excerpt, results attached:
- cpdSmiles: "CCCOC1=CC(c2ccc[nH]2)=N/C1=C\\NC12CC3CC(CC(C3)C1)C2.Cl"
  cat: "no"
- cpdSmiles: "CCOC1=CC(c2ccc[nH]2)=N/C1=C\\NC12CC3CC(CC(C3)C1)C2.Cl"
  cat: "yes"
- cpdSmiles: "CC(C)OC1=CC(c2ccc[nH]2)=N/C1=C\\NC1CCCCCC1.Cl"
  cat: "no"
- cpdSmiles: "C1=C(OCc2ccccc2)/C(=C/NC23CC4CC(CC(C4)C2)C3)N=C1c1ccc[nH]1.Cl"
  cat: "no"
- cpdSmiles: "CCOC1=CC(c2ccc[nH]2)=N/C1=C\\NCC(C)C.Cl"
  cat: "yes"
- cpdSmiles: "CCCCCCCCCCCC1=N/C(=C\\c2[nH]c(-c3ccc[nH]3)cc2OC)C=C1"
  cat: "no"
- cpdSmiles: "CCCCCc1cc(/C=C2\\N=C(c3ccc[nH]3)C=C2Oc2ccc(OC(F)(F)F)cc2)[nH]c1C.Cl"
  cat: "no"
- cpdSmiles: "CCCCCc1cc(/C=C2\\N=C(c3ccc[nH]3)C=C2OCc2ccc(Cl)cc2)[nH]c1C.Cl"
  cat: "no"
- cpdSmiles: "CCCOC1=CC(c2ccc[nH]2)=N/C1=C\\NC1CCCCCC1.Cl"
  cat: "no"
- cpdSmiles: "Cl.FC(F)(F)Oc1ccc(COC2=CC(c3ccc[nH]3)=N/C2=C\\NC23CC4CC(CC(C4)C2)C3)cc1"
  cat: "no"

Query string: Does the reported Activity of the following compound sit strictly below 40%? CCCCCCCCCCCc1ccc(/C=C2\N=C(c3ccc[nH]3)C=C2OCCC)[nH]1.Cl
Result string: no

Query string: Does the reported Activity of the following compound sit strictly below 40%? C1=C(Oc2ccccc2)/C(=C/NC23CC4CC(CC(C4)C2)C3)N=C1c1ccc[nH]1.Cl
Result string: no

Query string: Does the reported Activity of the following compound sit strictly below 40%? CC(C)CN/C=C1\N=C(c2ccc[nH]2)C=C1OCc1ccccc1.Cl
Result string: yes
